- MEASUREMENT_DESCRIPTION: in vitro
- Design: Cytotoxicity in iPSC-derived pneumocytes, CC50
- APPLIED_CONDITIONS: human, ipsc-derived pneumocytes; ASAP-0008327-001=ASAP-0011243-001; read-out: 50.0
ASSAY_METRIC: CC50

>>> measurement("CNCc1cc(-c2cc3c(N[C@@H](c4ccc5c(c4)S(=O)(=O)NCC5)C(C)C)ncnc3[nH]2)co1")
"> 50 µM"

###

- Tested on: iPSC pneumocytes
- MEASUREMENT_DESCRIPTION: iPSC pneumocytes cytotoxicity
- Type: cell-based
- APPLIED_CONDITIONS: protocol iPSC pneumocytes cytotoxicity
In this section, each of the molecules is paired with its reported CC50.
ASSAY_METRIC: CC50

>>> measurement("CNC(=O)c1cc2c(N[C@@H](c3ccc4c(c3)OCCO4)C(C)C)ncnc2[nH]1")
"> 50 µM"
>>> measurement("Cn1ncc(-c2cc3c(N[C@@H](c4ccc5c(c4)OCCO5)C(C)(C)C)ncnc3[nH]2)c1C#N (racemic)")
"48.6 µM"
>>> measurement("CC(C)[C@@H](Nc1ncnc2[nH]c(-c3cnn(CC(N)=O)c3)cc12)c1ccc2c(c1)OCCO2")
"> 50 µM"
>>> measurement("CC(C)[C@@H](Nc1ncnc2[nH]c(-c3cnn(C)c3C#N)cc12)c1ccc2c(c1)OCCO2 (racemic)")
"> 50 µM"
>>> measurement("CC(C)[C@@H](Nc1ncnc2[nH]c(C(N)=O)cc12)c1ccc2c(c1)OCCO2")
"> 50 µM"
>>> measurement("Cc1ncc(-c2cc3c(N[C@@H](c4ccc5c(c4)OCCO5)C(C)C)ncnc3[nH]2)cn1")
"> 50 µM"

###

In this section, each of the molecules is paired with its reported t_half.
- MEASUREMENT_DESCRIPTION: Hepatic microsomal stability, MLM
- Assay type: in vitro ADME
- APPLIED_CONDITIONS: In vitro mouse liver microsomal stability
ASSAY_METRIC: t_half (min)

>>> measurement("COc1ccc([C@@H](Cc2nnn[nH]2)NC(=O)c2ncnc3[nH]ccc23)cc1 [ASAP-0008340]")
4400.5
>>> measurement("CC(C)[C@H](Nc1ncnc(N)c1Cl)c1ccc2c(c1)S(=O)(=O)CCC2 (racemic) [ASAP-0010739]")
8.2
>>> measurement("CC(C)[C@H](Nc1ncnc2[nH]c(-c3cnn(CC(=O)N(C)C)c3)cc12)c1ccc2c(c1)S(=O)(=O)CCC2 [ASAP-0013744]")
13.5
>>> measurement("CC(C)C(Nc1ncnc2[nH]ccc12)c1ccc2c(c1)S(=O)(=O)CCC2 (stereo not shown) [ASAP-0008327]")
12.1
>>> measurement("CNC(=O)Cn1cc(-c2cc3c(N[C@H](c4ccc5c(c4)S(=O)(=O)CCC5)C(C)C)ncnc3[nH]2)cn1 (single isomer, unassigned) [ASAP-0011171]")
15.0
>>> measurement("CNC(=O)c1cc2c(N[C@@H](c3ccc4c(c3)NC(=O)CO4)C(C)C)ncnc2[nH]1 [ASAP-0011219]")
51.2
>>> measurement("C[C@H](C(=O)O)[C@@H](NC(=O)c1ncnc2[nH]ccc12)c1ccc(Br)cc1 [ASAP-0014722]")
379.672

###

- MEASUREMENT_DESCRIPTION: Hepatic microsomal stability, MLM
- Assay type: in vitro ADME
- APPLIED_CONDITIONS: In vitro mouse liver microsomal stability
ASSAY_METRIC: log10 t_half (log10 of the value in min)

>>> measurement("COc1ccc(C(NC(=O)c2ncnc3[nH]ccc23)C(C)c2nnn[nH]2)cc1 (mixture of isomers)")
3.46
>>> measurement("CC(C)[C@H](Nc1ncnc2[nH]cc(C(=O)NC3CC3)c12)c1ccc2c(c1)S(=O)(=O)CCC2 (racemic) [ASAP-0008647]")
0.86
>>> measurement("CCNC(=O)c1cc2c(N[C@H](c3ccc4c(c3)OCCO4)C(C)C)ncnc2[nH]1 [ASAP-0013824]")
1.54
>>> measurement("CC(C)[C@@H](Nc1ncnc2[nH]c(C(=O)N[C@H]3CCN(C)C3)cc12)c1ccc2c(c1)S(=O)(=O)CCC2 (single isomer, unassigned)")
2.64
>>> measurement("CCNC(=O)c1cc2c(N[C@H](c3ccc4c(c3)OCCO4)C(C)C)ncnc2[nH]1 (single isomer, unassigned) [ASAP-0013827]")
1.37
>>> measurement("CNC(=O)c1cc2c(N[C@@H](c3ccc4c(c3)S(=O)(=O)CCC4)C(C)C)ncnc2[nH]1 [ASAP-0008685]")
1.56
>>> measurement("CC(C)[C@@H](Nc1ncnc2[nH]c(-c3ccc4nnn(C)c4c3)cc12)c1ccc2c(c1)S(=O)(=O)CCC2")
0.88
